- Test system: Hepatocyte
- methodDescription: Hepatoprotective activity against D-galactosamine/TNFalpha-induced cell death in primary cultured mouse hepatocytes treated for 30 mins before TNFalpha challenge measured after 18 hrs by MTT assay
- Assay type: functional, cell-based
Active and inactive are the calls of the source. No cut-off for these calls is given here.
Classes used: active, inactive

[[record]]
structureassmiles = "C[C@H]1[C@H](C)CC[C@]2(C(=O)O[C@@H]3O[C@H](CO)[C@@H](O)[C@H](O)[C@H]3O)CC[C@]3(C)C(=CC[C@@H]4[C@@]5(C)C[C@@H](O)[C@H](O)[C@@](C)(CO)[C@@H]5CC[C@]43C)[C@H]12"
qualitativelabel = "inactive"

[[record]]
structureassmiles = "C[C@@H]1CC[C@]2(C(=O)O[C@@H]3O[C@H](CO)[C@@H](O)[C@H](O)[C@H]3O)CC[C@]3(C)C(=CC[C@@H]4[C@@]5(C)C[C@@H](O)[C@H](O)[C@@](C)(CO)[C@@H]5CC[C@]43C)[C@@H]2[C@]1(C)O"
qualitativelabel = "inactive"

[[record]]
structureassmiles = "C=C(C)[C@@H]1CC[C@]2(C(=O)O[C@@H]3O[C@H](CO)[C@@H](O)[C@H](O)[C@H]3O)CC[C@]3(C)[C@H](CC[C@@H]4[C@@]5(C)C[C@@H](O)[C@H](O)C(C)(C)[C@@H]5[C@H](O)C[C@]43C)[C@@H]12"
qualitativelabel = "active"

[[record]]
structureassmiles = "C[C@@H]1CC[C@]2(C(=O)O)CC[C@]3(C)C(=CC[C@@H]4[C@@]5(C)C[C@@H](O)[C@H](O)[C@@](C)(CO)[C@@H]5CC[C@]43C)[C@@H]2[C@]1(C)O"
qualitativelabel = "inactive"

[[record]]
structureassmiles = "CC1=C2C3=CC[C@@H]4[C@@]5(C)C[C@@H](O)[C@H](O)[C@@](C)(CO)[C@@H]5[C@H](O)C[C@@]4(C)[C@]3(C)CC[C@@]2(C(=O)O[C@@H]2O[C@H](CO)[C@@H](O)[C@H](O)[C@H]2O)CC[C@H]1C"
qualitativelabel = "active"

[[record]]
structureassmiles = "C=C(C)[C@@H]1CC[C@]2(C(=O)O[C@@H]3O[C@H](CO)[C@@H](O)[C@H](O)[C@H]3O)CC[C@]3(C)[C@H](CC[C@@H]4[C@@]5(C)C[C@@H](O)[C@H](O)[C@@](C)(CO)[C@@H]5[C@H](O)C[C@]43C)[C@@H]12"
qualitativelabel = "active"


Data origin, for the record: ChEMBL document CHEMBL1150573
